- Tested on: Vasopressin V1
- assayDetails: Vasopressin V1 Antagonist Activity in Conscious Rats (vasopressin vasopressor response)
- Assay type: in vivo, rat
- Design: unit not given here
- conditionNotes: 10 mg/kg i.v., VAS 0.02 i.u./kg, 30 min, SHR
Measured Average Change, listed per entry for reference.
Answer as a number with no unit attached.

Here's what some known entries look like.
molecule	measuredQuantity	quantitativeResult
CSc1ccccc1C(=O)Nc1ccc(C(=O)N2Cc3cccn3Cc3ccccc32)cc1 [Example 85]	Average Change	9
O=C(Nc1ccc(C(=O)N2Cc3cccn3Cc3ccccc32)cc1)c1ccccc1F [Example 8]	Average Change	23.5
Cc1ccsc1C(=O)Nc1ccc(C(=O)N2Cc3cccn3Cc3ccccc32)cc1 [Example 5]	Average Change	13.5

Turning now to a further record.
Ask | Give Average Change (Vasopressin V1) of the following molecule: O=C(Nc1ccc(C(=O)N2Cc3cccn3Cc3ccccc32)cc1)c1ccccc1C(F)(F)F [Example 91]
Reply | 7.5

====

Measured Average Change, listed per entry for reference.
- Tested on: Vasopressin V1
- assayDetails: Vasopressin V1 Antagonist Activity in Conscious Rats (vasopressin vasopressor response)
- Format: in vivo, rat
- Parameters: unit not given here
- conditionNotes: 10 mg/kg i.v., VAS 0.02 i.u./kg, 120 min, SHR
Answer as a number with no unit attached.

CCOc1ccccc1C(=O)Nc1ccc(C(=O)N2Cc3cccn3Cc3ccccc32)cc1 32.5
Cc1ccccc1C(=O)Nc1ccc(C(=O)N2Cc3ccc(Cl)n3Cc3ccccc32)cc1 16.5

Turning now to a further record.
Ask | Give its Average Change value. Item: O=C(Cc1ccccc1F)Nc1ccc(C(=O)N2Cc3cccn3Cc3ccccc32)cc1
Reply | 6

====

Measured pIC50, listed per entry for reference.
- targetOfAssay: Rat Kidney Medullary V2 Receptors (Rattus norvegicus)
- Construct: Medullary tissues from rat kidneys are dissected out; from tissue; host or cells: rat kidney medulla membranes
- Sequence (Q00788 whole entry): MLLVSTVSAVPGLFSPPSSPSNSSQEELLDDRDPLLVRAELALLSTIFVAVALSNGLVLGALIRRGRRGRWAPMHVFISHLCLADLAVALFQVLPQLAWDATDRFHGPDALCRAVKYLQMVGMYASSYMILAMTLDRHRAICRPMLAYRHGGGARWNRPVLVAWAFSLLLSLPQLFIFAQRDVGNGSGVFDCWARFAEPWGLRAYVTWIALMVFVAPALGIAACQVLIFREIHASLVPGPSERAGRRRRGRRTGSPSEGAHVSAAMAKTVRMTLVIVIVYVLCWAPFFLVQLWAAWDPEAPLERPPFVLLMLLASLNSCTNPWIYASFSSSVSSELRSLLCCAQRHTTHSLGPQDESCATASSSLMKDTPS
- assayDetails: Binding Assay to Rat Kidney Medullary V2 Receptors
- conditionNotes: rat kidney medulla membranes; read-out: V2 IC50
Bear in mind: pIC50 is minus log10 of a mol/L concentration; give just that figure.

molecule	measuredQuantity	quantitativeResult
O=C(Nc1ccc(C(=O)N2Cc3cccn3Cc3ccccc32)cc1)c1cc(Cl)cc(Cl)c1Cl [Example 599]	pIC50	7.85
O=C(Nc1ccc(C(=O)N2Cc3ccc(Cn4ccnc4)n3Cc3ccccc32)cc1)c1ccc(Cl)cc1Cl [Example 582]	pIC50	7.85
CN(C)Cc1ccc2n1Cc1ccccc1N(C(=O)c1ccc(NC(=O)c3ccc(Cl)cc3Cl)cc1)C2 [Example 664]	pIC50	7.32
O=C(CC1CCCCC1)Nc1ccc(C(=O)N2Cc3cccn3Cc3ccccc32)cc1 [Example 356]	pIC50	7.28

Ask | Give its pIC50 value. Item: Cc1c(F)cccc1C(=O)Nc1ccc(C(=O)N2Cc3ccnn3Cc3ccccc32)cc1 [Example 517]
Reply | 7.82

Ask | Give its pIC50 value. Item: O=C(Nc1ccc(C(=O)N2Cc3cccn3Cc3ccccc32)cc1)c1ccccc1C(F)(F)F [Example 91]
Reply | 7.66

Ask | Give its pIC50 value. Item: COC(=O)c1ccc2n1Cc1ccccc1N(C(=O)c1ccc(NC(=O)c3ccc(Cl)cc3Cl)cc1)C2 [Example 593]
Reply | 7.38

Ask | Give its pIC50 value. Item: O=C(Nc1ccc(C(=O)N2Cc3cccn3Cc3ccccc32)cc1)C1CCCCC1 [Example 358]
Reply | 7.80
